As a worked illustration, we turn to pIC50 data collected for Tie-2 (Homo sapiens, UniProt Q02763).
pIC50: −log10 of the molar value.
ASSAY_ENDPOINT: pIC50

{"columns": ["STRUCTURE_SMILES", "REPORTED_MEASUREMENT"],
 "data": [
  ["Nc1cc(COc2nsnc2N2CCN(S(=O)(=O)c3cc(C(F)(F)F)cc(C(F)(F)F)c3)CC2)ccn1", "≤ 5.00"],
  ["CCc1cccc(NC(=O)N2CCN(c3ncc(Br)cc3OCc3ccnc(N)n3)CC2)c1", "> 7.30"],
  ["O=C(Nc1cc(C(F)(F)F)cc(C(F)(F)F)c1)N1CCN(c2ncccc2OCc2ccncc2)CC1", "> 7.30"],
  ["Nc1nccc(COc2ccccc2N2CCN(C(=O)Nc3cccc(F)c3)CC2)n1", "5.00 to 6.00"],
  ["CCCNc1cc(COc2nsnc2N2CCNCC2)ccn1", "≤ 5.00"],
  ["NC(=O)c1cnc(OCc2ccnc(N)n2)c(N2CCN(C(=O)Nc3cc(C(F)(F)F)cc(C(F)(F)F)c3)CC2)n1", "> 7.30"],
  ["O=C(Nc1cc(C(F)(F)F)cc(C(F)(F)F)c1)N1CCN(c2nsnc2OCc2ccnc(Nc3ccccc3)n2)CC1", "> 7.30"],
  ["Nc1nccc(COc2nsnc2N2CCN(C(=O)Nc3cccc(F)c3)CC2)n1", "5.00 to 6.00"]
]}

###

Assay system UniProtKB Q02763; read-out recorded as IC50.

{"columns": ["COMPOUND", "IC50"],
 "data": [
  ["CC1CN(c2nsnc2OCc2ccncc2)CCN1C(=O)Nc1cc(C(F)(F)F)cc(C(F)(F)F)c1 (stereo not shown)", "50 to 1000 nM"],
  ["CCc1ccc(F)c(NC(=O)N2CCN(c3nc(Cl)ccc3OCc3ccnc(N)n3)CC2)c1", "< 50 nM"],
  ["Nc1nccc(COc2cccnc2N2CCN(C(=O)Nc3cc(Cl)cc(Cl)c3)CC2)n1", "< 50 nM"],
  ["CCN(CC)CC(=O)Nc1cc(COc2nsnc2N2CCN(C(=O)Nc3cc(C(F)(F)F)cc(C(F)(F)F)c3)CC2)ccn1", "50 to 1000 nM"],
  ["CCNc1nccc(COc2nsnc2N2CCN(C(=O)Nc3cc(C(F)(F)F)cc(C(F)(F)F)c3)CC2)n1", "< 50 nM"],
  ["O=C(Nc1cc(C(F)(F)F)cc(C(F)(F)F)c1)N1CCN(c2nccnc2OCc2ccnc(F)c2)CC1", "50 to 1000 nM"],
  ["CC1CN(c2nccnc2OCc2ccncc2)CCN1C(=O)Nc1cccc(C(F)(F)F)c1 (stereo not shown)", "50 to 1000 nM"]
]}

###

Target or system Tie-2 (Homo sapiens): recorded pIC50 listed per item.
pIC50: −log10 of the molar value.
ASSAY_ENDPOINT: pIC50

{"columns": ["MOLECULE", "TARGET_OR_TEST_SYSTEM", "ASSAY_ENDPOINT", "REPORTED_MEASUREMENT"],
 "data": [
  ["CN1CCN(CC(=O)Nc2cc(COc3cccnc3N3CCN(C(=O)Nc4cc(C(F)(F)F)cc(Cl)c4F)CC3)ccn2)CC1 [Example 243]", "Tie-2 (Homo sapiens)", "pIC50", "> 7.30"],
  ["Nc1nccc(COc2cccnc2N2CCN(C(=O)Nc3ccc(F)cc3)CC2)n1 [Example 187]", "Tie-2 (Homo sapiens)", "pIC50", "5.00 to 6.00"],
  ["CC1CN(c2nsnc2OCc2ccncc2)CCN1C(=O)Nc1cccc(C(F)(F)F)c1 (stereo not shown) [Example 41]", "Tie-2 (Homo sapiens)", "pIC50", "6.00 to 7.30"],
  ["CC1CN(c2nsnc2OCc2ccncc2)CC(C)N1C(=O)Nc1cccc(C(F)(F)F)c1 (stereo not shown) [Example 69]", "Tie-2 (Homo sapiens)", "pIC50", "6.00 to 7.30"]
]}

###

Target: Tie-2 (Homo sapiens, UniProt Q02763)
Sequence (Q02763 23-1124): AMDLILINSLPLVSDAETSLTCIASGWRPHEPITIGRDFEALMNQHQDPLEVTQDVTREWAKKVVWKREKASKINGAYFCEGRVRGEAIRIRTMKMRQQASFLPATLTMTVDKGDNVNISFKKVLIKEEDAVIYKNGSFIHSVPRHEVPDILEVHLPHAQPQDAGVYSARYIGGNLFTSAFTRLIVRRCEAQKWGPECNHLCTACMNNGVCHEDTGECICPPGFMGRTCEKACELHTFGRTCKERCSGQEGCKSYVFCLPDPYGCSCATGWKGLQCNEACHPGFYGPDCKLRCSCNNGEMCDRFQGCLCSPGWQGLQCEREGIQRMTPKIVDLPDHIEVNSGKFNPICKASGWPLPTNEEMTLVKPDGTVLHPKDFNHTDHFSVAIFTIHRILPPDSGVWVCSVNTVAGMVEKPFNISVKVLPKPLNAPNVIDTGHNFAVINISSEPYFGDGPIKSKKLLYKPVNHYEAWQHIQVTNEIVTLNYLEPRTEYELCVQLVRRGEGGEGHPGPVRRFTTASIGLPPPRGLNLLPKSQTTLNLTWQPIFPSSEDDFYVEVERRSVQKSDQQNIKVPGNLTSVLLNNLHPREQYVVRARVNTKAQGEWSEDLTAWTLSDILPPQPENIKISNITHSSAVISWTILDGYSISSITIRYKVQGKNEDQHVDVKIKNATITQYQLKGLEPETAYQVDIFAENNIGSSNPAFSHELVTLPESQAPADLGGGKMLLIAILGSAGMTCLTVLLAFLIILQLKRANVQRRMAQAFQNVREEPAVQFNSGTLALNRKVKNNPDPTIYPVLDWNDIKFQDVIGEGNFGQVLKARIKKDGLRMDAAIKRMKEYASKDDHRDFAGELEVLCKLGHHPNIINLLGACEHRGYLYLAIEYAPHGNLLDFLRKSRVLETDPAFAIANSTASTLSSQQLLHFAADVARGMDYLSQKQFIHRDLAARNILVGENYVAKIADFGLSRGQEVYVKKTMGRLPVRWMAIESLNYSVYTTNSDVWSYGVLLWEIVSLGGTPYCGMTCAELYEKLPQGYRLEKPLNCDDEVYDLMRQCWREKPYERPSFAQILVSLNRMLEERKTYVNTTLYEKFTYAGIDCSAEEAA
ASSAY_ENDPOINT: IC50

{"columns": ["COMPOUND", "ASSAY_ENDPOINT", "REPORTED_MEASUREMENT"],
 "data": [
  ["CCc1cc(CC)cc(NC(=O)N2CCN(c3ccccc3OCc3ccnc(N)n3)CC2)c1 [Example 279]", "IC50", "< 50 nM"],
  ["O=C(Nc1nccc(COc2nsnc2N2CCN(C(=O)Nc3cc(C(F)(F)F)cc(C(F)(F)F)c3)CC2)n1)OCCN1CCCC1 [Example 162]", "IC50", "50 to 1000 nM"],
  ["Nc1nccc(COc2nccnc2N2CCN(C(=O)Nc3cc(Cl)cc(C(F)(F)F)c3)CC2)n1 [Example 234]", "IC50", "< 50 nM"],
  ["Nc1nccc(COc2nccnc2N2CCN(C(=O)Nc3cccc(C(F)(F)F)c3)CC2)n1 [Example 229]", "IC50", "< 50 nM"],
  ["Nc1nccc(COc2cccnc2N2CCN(C(=O)Nc3cccc(OC(F)(F)F)c3)CC2)n1 [Example 168]", "IC50", "< 50 nM"],
  ["Nc1nccc(COc2nsnc2N2CCN(C(=O)Nc3ccc(F)c(Cl)c3)CC2)n1 [Example 253]", "IC50", "1000 to 10000 nM"],
  ["CCCCNc1cc(COc2nsnc2N2CCN(C(=O)Nc3cc(C(F)(F)F)cc(C(F)(F)F)c3)CC2)ccn1 [Example 114]", "IC50", "50 to 1000 nM"],
  ["CCc1ccc(F)c(NC(=O)N2CCN(c3ccccc3OCc3ccnc(N)n3)CC2)c1 [Example 278]", "IC50", "< 50 nM"],
  ["CN1CCN(CC(=O)Nc2cc(COc3cccnc3N3CCN(C(=O)Nc4cc(F)cc(C(F)(F)F)c4)CC3)ccn2)CC1 [Example 212]", "IC50", "< 50 nM"]
]}

###

pIC50: −log10 of the molar value.
The following molecules each carry a recorded pIC50 for UniProt Q02763.

{"columns": ["MOLECULE", "pIC50"],
 "data": [
  ["Nc1cc(COc2nsnc2N2CCN(C(=O)Nc3cccc(SC(F)(F)F)c3)CC2)ccn1", "> 7.30"],
  ["CN1CCN(CC(=O)Nc2cc(COc3cccnc3N3CCN(C(=O)Nc4cccc(C5CC5)c4)CC3)ccn2)CC1", "> 7.30"],
  ["CC1CN(C(=O)Nc2cccc(C(F)(F)F)c2)CCN1c1nccnc1OCc1ccncc1 (stereo not shown)", "6.00 to 7.30"],
  ["COC(=O)Nc1nccc(COc2nsnc2N2CCN(C(=O)Nc3cc(C(F)(F)F)cc(C(F)(F)F)c3)CC2)n1", "> 7.30"],
  ["CCc1cccc(NC(=O)N2CCN(c3ncccc3OCc3ccnc(NC(=O)CN4CCN(C)CC4)c3)CC2)c1", "> 7.30"],
  ["CN(C)CC(=O)Nc1cc(COc2nsnc2N2CCN(C(=O)Nc3cc(C(F)(F)F)cc(C(F)(F)F)c3)CC2)ccn1", "> 7.30"],
  ["Nc1nccc(COc2cccnc2N2CCN(C(=O)Nc3cccc(Br)c3)CC2)n1", "> 7.30"],
  ["CCc1cc(NC(=O)N2CCN(c3nsnc3OCc3ccnc(N)n3)CC2)ccc1F", "6.00 to 7.30"],
  ["O=C(Nc1cc(C(F)(F)F)cc(C(F)(F)F)c1)Nc1cc(COc2nsnc2N2CCN(C(=O)Nc3cc(C(F)(F)F)cc(C(F)(F)F)c3)CC2)ccn1", "5.00 to 6.00"],
  ["CN1CCN(CC(=O)Nc2cc(COc3cccnc3N3CCN(C(=O)Nc4cc(Cl)cc(Cl)c4)CC3)ccn2)CC1", "> 7.30"],
  ["Nc1nccc(COc2cccnc2N2CCN(C(=O)Nc3cccc(F)c3)CC2)n1", "6.00 to 7.30"],
  ["O=C(Nc1cccc(Cl)c1)N1CCN(c2ncccc2OCc2ccncc2)CC1", "6.00 to 7.30"],
  ["O=C(O)c1ccc(COc2nsnc2N2CCN(C(=O)Nc3cc(C(F)(F)F)cc(C(F)(F)F)c3)CC2)cc1", "5.00 to 6.00"],
  ["Nc1nccc(COc2nsnc2N2CCN(C(=O)Cc3cc(C(F)(F)F)cc(C(F)(F)F)c3)CC2)n1", "6.00 to 7.30"],
  ["Nc1nccc(COc2nsnc2N2CCN(C(=O)Nc3cc(C(F)(F)F)ccc3F)CC2)n1", "6.00 to 7.30"],
  ["CCc1cccc(NC(=O)N2CCN(c3nc4ccccc4nc3OCc3ccncc3)CC2C)c1 (stereo not shown)", "6.00 to 7.30"],
  ["CCN(CC)CCOC(=O)Nc1cc(COc2nsnc2N2CCN(C(=O)Nc3cc(C(F)(F)F)cc(C(F)(F)F)c3)CC2)ccn1", "> 7.30"],
  ["CC(=O)c1cccc(NC(=O)N2CCN(c3nsnc3OCc3ccnc(N)n3)CC2)c1", "5.00 to 6.00"],
  ["COC(=O)Nc1cc(COc2cccnc2N2CCN(C(=O)Nc3cccc(Br)c3)CC2)ccn1", "> 7.30"],
  ["CCc1cccc(NC(=O)N2CCN(c3nccnc3OCc3ccncc3)CC2)c1", "> 7.30"],
  ["Cc1ccc(OCc2ccnc(N)n2)c(N2CCN(C(=O)Nc3cc(C(F)(F)F)cc(C(F)(F)F)c3)CC2)n1", "> 7.30"],
  ["CC1CN(c2nccnc2OCc2ccncc2)CCN1C(=O)Nc1cc(C(F)(F)F)cc(C(F)(F)F)c1 (stereo not shown)", "> 7.30"],
  ["Nc1nccc(COc2nccnc2N2CCN(C(=O)Nc3cc(C(F)(F)F)cc(C(F)(F)F)c3)CC2)n1", "> 7.30"],
  ["CCc1cccc(NC(=O)N2CCN(c3nc(Cl)ccc3OCc3ccnc(N)n3)CC2)c1", "> 7.30"],
  ["O=C(Nc1cc(C(F)(F)F)cc(C(F)(F)F)c1)C1CCN(c2nsnc2OCc2ccncc2)CC1", "6.00 to 7.30"],
  ["CNC(=O)N1CCN(c2ncccc2OCc2ccnc(N)n2)CC1", "≤ 5.00"],
  ["CC1CN(c2nccnc2OCc2ccncc2)C(C)CN1C(=O)Nc1cccc(C(F)(F)F)c1 (stereo not shown)", "6.00 to 7.30"],
  ["O=C(Nc1cc(C(F)(F)F)cc(C(F)(F)F)c1)N1CCN(c2nsnc2OCc2ccnc(NCc3ccccc3)n2)CC1", "6.00 to 7.30"],
  ["O=C(CN1CCOCC1)Nc1cc(COc2nsnc2N2CCN(C(=O)Nc3cc(C(F)(F)F)cc(C(F)(F)F)c3)CC2)ccn1", "> 7.30"],
  ["CCc1cccc(NC(=O)N2CCN(c3nc(C)ccc3OCc3ccnc(N)n3)CC2)c1", "> 7.30"],
  ["CC(C)CNC(=O)N1CCN(c2ncccc2OCc2ccnc(N)n2)CC1", "≤ 5.00"]
]}
